The origin of these recorded values is ChEMBL document CHEMBL1125205.

# Measured target: 3-hydroxy-3-methylglutaryl-coenzyme A reductase (Rattus norvegicus, UniProt P51639)
# Sequence (P51639 whole entry): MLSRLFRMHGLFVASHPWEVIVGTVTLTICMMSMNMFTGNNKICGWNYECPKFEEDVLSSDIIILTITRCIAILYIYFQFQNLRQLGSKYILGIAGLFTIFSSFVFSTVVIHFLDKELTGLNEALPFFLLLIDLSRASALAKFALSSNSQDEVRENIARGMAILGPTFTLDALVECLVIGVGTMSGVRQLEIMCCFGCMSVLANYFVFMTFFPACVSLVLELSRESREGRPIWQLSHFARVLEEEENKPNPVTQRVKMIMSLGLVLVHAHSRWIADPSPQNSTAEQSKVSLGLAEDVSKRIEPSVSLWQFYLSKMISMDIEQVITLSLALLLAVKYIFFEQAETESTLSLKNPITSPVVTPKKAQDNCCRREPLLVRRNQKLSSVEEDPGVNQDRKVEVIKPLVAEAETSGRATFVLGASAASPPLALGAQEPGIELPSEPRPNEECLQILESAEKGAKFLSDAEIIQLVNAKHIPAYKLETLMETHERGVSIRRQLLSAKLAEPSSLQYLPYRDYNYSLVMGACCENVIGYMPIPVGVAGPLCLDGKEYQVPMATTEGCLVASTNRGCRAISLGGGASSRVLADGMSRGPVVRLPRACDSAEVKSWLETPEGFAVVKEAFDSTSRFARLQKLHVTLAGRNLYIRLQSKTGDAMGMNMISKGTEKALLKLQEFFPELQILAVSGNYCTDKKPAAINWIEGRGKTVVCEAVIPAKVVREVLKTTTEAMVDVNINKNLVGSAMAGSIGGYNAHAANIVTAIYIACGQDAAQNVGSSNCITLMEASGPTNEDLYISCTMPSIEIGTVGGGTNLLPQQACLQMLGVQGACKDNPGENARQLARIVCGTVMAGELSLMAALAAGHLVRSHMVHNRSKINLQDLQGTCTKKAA
# Assay method text: In vitro for inhibition of rat HMG-CoA reductase.
# Assay context: read-out: I50
Measured quantity: IC50 (nM)

smiles_entry=CC(C)c1cc(-c2ccc(F)cc2)c(C#CP(=O)(O)C[C@H](O)CC(=O)O)c(C(C)C)n1 measured_target="3-hydroxy-3-methylglutaryl-coenzyme A reductase (Rattus norvegicus, UniProt P51639)" data_value=80.9
smiles_entry=CC(C)c1nc(C2CC2)cc(-c2ccc(F)cc2)c1C#CP(=O)(O)C[C@H](O)CC(=O)O measured_target="3-hydroxy-3-methylglutaryl-coenzyme A reductase (Rattus norvegicus, UniProt P51639)" data_value=4.2
smiles_entry=Cc1cc(F)ccc1-c1cc(-c2ccccc2)nc(C(C)C)c1C#CP(=O)(O)C[C@H](O)CC(=O)O measured_target="3-hydroxy-3-methylglutaryl-coenzyme A reductase (Rattus norvegicus, UniProt P51639)" data_value=156

A = CC(C)c1nc(-c2cccs2)cc(-c2ccc(F)cc2)c1C#CP(=O)(O)C[C@H](O)CC(=O)O
B = CCc1c(-c2ccccc2)nc(C(C)C)c(/C=C/P(=O)([O-])C[C@H](O)CC(=O)[O-])c1-c1ccc(F)cc1.[Na+].[Na+]
C = CC(C)c1nc(C23CC4CC(CC(C4)C2)C3)cc(-c2ccc(F)cc2)c1C#CP(=O)(O)C[C@H](O)CC(=O)O
D = Cc1c(-c2ccccc2)nc(C(C)C)c(/C=C/P(=O)([O-])C[C@H](O)CC(=O)[O-])c1-c1ccc(F)cc1.[Na+].[Na+]
E = CC(C)c1nc(-c2cccc3c2OCO3)cc(-c2ccc(F)cc2)c1C#CP(=O)(O)C[C@H](O)CC(=O)O
Number of compounds to sort: 5. Sort criterion: IC50, ascending. Would you mind listing the labels in the order requested?
B, D, A, C, E
